Would you mind telling me the reported IC50 of each entry?
targetOrSystem: c-Met (Homo sapiens)
Construct: Kinases are expressed as either kinase domains or full length constructs; made in house
Sequence (P08581 25-1390): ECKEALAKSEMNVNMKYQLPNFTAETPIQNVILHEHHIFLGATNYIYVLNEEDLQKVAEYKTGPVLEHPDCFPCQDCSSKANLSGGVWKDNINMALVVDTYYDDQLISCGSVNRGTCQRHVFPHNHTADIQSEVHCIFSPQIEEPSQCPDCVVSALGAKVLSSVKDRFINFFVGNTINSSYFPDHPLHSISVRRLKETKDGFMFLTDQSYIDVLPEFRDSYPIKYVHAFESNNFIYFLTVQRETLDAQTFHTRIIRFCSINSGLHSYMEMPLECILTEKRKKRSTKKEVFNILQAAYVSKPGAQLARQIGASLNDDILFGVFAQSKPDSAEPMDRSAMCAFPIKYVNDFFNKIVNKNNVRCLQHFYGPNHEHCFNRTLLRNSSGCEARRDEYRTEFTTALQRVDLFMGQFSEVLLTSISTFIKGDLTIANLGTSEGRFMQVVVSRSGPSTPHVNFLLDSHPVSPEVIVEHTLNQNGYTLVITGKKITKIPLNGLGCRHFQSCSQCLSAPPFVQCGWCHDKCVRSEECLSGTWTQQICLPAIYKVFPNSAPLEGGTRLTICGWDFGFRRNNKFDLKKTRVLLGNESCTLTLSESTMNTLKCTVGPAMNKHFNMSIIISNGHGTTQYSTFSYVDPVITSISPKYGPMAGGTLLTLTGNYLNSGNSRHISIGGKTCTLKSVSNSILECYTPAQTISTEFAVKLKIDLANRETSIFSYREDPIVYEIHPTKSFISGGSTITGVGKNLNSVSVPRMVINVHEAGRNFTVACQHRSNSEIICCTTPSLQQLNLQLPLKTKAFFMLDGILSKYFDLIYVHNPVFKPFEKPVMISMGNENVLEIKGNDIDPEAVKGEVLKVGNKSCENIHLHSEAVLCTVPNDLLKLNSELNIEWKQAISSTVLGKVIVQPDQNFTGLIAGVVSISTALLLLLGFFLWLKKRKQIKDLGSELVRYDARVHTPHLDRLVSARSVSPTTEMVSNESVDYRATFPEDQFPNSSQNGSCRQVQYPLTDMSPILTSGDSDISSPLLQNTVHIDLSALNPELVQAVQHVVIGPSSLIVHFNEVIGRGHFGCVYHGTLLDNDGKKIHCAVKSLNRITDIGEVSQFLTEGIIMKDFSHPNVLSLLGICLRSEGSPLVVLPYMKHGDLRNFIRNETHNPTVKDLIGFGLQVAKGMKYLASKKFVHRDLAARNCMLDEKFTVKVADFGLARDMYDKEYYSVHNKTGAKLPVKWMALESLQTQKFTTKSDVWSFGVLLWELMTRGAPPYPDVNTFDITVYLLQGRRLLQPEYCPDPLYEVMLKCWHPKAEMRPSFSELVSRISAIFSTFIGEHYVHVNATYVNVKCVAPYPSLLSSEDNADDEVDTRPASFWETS
testDescription: Kinase inhibition assay (33P transfer), c-Met
Format: biochemical
settings: Table 2, kinase inhibition class; read-out: Met-1

Query :: What does the data say about its IC50? Entry: CCN(CC)CCCNc1ccc(-c2ncnc(Nc3cc(OC)c(OC)c(OC)c3)n2)cn1 [Compound 448]
Result :: > 9.62 µM

Query :: Look up IC50 for this compound: CN(c1cccc(Cl)c1)c1ncnc(Nc2cc(-c3ccco3)[nH]n2)n1 [Compound 753]
Result :: 1.09 to 6.53 µM

Query :: Suppose we examine the compound O=c1[nH]c2ccccc2n1-c1ncnc(Nc2ccc3[nH]ncc3c2)n1 [Compound 685] ; what IC50 value has been reported?
Result :: > 13.1 µM

Query :: So what's the measured IC50 for this one? Nc1ncnc(Nc2ccc3c(c2)OCO3)n1 [Compound 1025]
Result :: > 19.5 µM

Query :: I would be grateful if you could share the reported IC50 for COc1cc(Nc2ncnc(N(CCC(C)C)c3ccc(Cl)cc3)n2)cc(OC)c1OC [Compound 51] .
Result :: 0.873 to 5.24 µM

Query :: Give its IC50 value. Item: CCC(O)CNc1ncnc(Nc2ccc(OC)c(OC)c2)n1 (stereo not drawn) [Compound 788]
Result :: > 14.1 µM

Query :: What IC50 value was documented for this compound, C=CCNc1nc2ccccc2n1-c1ncnc(Nc2cc(OC)c(OC)c(OC)c2)n1 [Compound 574] ?
Result :: > 10.4 µM

Query :: Return reported IC50; argument: COc1cc(Nc2ncnc(Nc3cc(Cl)c(O)c(Cl)c3)n2)cc(OC)c1OC [Compound 68]
Result :: 7.99 to 10.3 µM

Query :: What does the data say about its IC50? Entry: CN(c1cccc(Cl)c1)c1ncnc(N(C)c2cccc(Cl)c2)n1 [Compound 702]
Result :: > 12.5 µM

Query :: Request the reported IC50 associated with COc1cc(Nc2ncnc(-n3c(NCc4cccc(Br)c4)nc4ccccc43)n2)cc(OC)c1OC [Compound 946]
Result :: 6.22 to 8 µM

Query :: Which measured IC50 value corresponds to COc1cc(Nc2ncnc(Nc3cc(-c4ccc(C(=O)NCCc5ccccc5)cc4)n[nH]3)n2)cc(OC)c1OC [Compound 1006] ?
Result :: < 0.706 µM

Query :: I am curious: what IC50 value has been reported for COc1cc(Nc2ncnc(Nc3cc(C)ccc3C)n2)cc(OC)c1OC [Compound 932] ?
Result :: 6.29 to 9.18 µM

Query :: For COc1cc(Nc2ncnc(Nc3cc(C)[nH]n3)n2)cc(OC)c1OC [Compound 88] , what is its reported IC50?
Result :: 1.12 to 6.72 µM

Query :: Which IC50 is listed for Nc1nc2ccccc2n1-c1ncnc(Nc2ccc(Cl)cc2)n1 [Compound 478] ?
Result :: 1.18 to 7.11 µM

Query :: Requested read-out: IC50. Entry: COc1cc(Nc2ncnc(-n3c(Nc4ccc(F)cc4)nc4ccccc43)n2)cc(OC)c1OC [Compound 387]
Result :: 7.18 to 9.23 µM

Query :: I am curious: what IC50 value has been reported for COc1cc(Nc2ncnc(Nc3ccc(OCc4ccccc4)cc3)n2)cc(OC)c1OC [Compound 926] ?
Result :: 7.62 to 9.79 µM

Query :: For COc1cc(Nc2ncnc(Nc3cccc(C(C)=O)c3)n2)cc(OC)c1OC [Compound 697] , what is its reported IC50?
Result :: > 11.4 µM

Query :: Dear colleague, I am looking for the recorded IC50 of the following compound: COc1cc(Nc2ncnc(Oc3ccc(OCc4ccccc4)cc3)n2)cc(OC)c1OC [Compound 530]
Result :: > 9.77 µM

* * *

So I've got a bunch of compounds here, and I need their IC50 values.
targetOrSystem: EGFR (Homo sapiens)
Construct: Kinases are expressed as either kinase domains or full length constructs; made in house
Sequence (P00533 25-1210, species assumed): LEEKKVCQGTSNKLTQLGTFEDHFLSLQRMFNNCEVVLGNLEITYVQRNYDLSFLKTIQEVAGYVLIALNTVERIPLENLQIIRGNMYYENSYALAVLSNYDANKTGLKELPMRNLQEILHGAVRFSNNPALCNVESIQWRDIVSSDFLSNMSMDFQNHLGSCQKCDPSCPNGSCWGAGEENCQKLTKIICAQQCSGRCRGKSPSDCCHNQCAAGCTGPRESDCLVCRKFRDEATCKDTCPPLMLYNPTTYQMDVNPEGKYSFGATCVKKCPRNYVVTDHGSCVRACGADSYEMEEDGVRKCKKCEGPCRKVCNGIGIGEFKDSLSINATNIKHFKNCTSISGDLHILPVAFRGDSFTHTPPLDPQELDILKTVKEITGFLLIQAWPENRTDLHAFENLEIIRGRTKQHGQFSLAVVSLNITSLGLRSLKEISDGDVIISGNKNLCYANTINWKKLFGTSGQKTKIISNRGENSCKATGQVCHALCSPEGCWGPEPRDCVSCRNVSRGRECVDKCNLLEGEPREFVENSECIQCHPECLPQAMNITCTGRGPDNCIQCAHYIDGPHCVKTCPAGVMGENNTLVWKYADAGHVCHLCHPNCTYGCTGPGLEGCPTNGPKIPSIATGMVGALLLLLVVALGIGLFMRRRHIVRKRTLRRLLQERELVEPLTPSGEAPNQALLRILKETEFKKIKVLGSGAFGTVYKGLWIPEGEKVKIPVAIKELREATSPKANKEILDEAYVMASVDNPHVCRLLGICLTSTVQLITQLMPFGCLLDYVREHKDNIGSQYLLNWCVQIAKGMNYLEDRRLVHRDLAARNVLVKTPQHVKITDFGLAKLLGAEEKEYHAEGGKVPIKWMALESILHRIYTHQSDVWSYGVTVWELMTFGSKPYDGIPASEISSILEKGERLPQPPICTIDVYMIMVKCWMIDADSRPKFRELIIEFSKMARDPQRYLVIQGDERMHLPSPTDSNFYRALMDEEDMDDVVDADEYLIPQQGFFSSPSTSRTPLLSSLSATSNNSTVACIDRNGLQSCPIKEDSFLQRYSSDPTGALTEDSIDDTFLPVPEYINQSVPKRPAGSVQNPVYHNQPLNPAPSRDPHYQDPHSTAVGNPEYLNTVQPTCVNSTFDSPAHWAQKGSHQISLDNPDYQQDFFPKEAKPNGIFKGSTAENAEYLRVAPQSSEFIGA
testDescription: Kinase inhibition assay (33P transfer), EGFR
Format: biochemical
settings: Table 2, kinase inhibition class; read-out: EGFR-1

Query :: GET /values?readout=IC50&item= Nc1nc2ccccc2n1-c1ncnc(Nc2ccc(N3CCOCC3)cc2)n1 [Compound 479]
Result :: 9.01 to 11.6 µM

Query :: Give its IC50 value. Item: COc1ccc(Nc2ncnc(Nc3cc(OC)c(OC)c(OC)c3)n2)cc1OC [Compound 36]
Result :: 8.47 to 10.9 µM

Query :: Any idea what IC50 was measured for CCC(Nc1nc2ccccc2n1-c1ncnc(Nc2cc(OC)c(OC)c(OC)c2)n1)c1ccccc1 (centres unmarked) [Compound 592] ?
Result :: 0.782 to 4.69 µM

Query :: I would be grateful if you could share the reported IC50 for COc1cc(Nc2ncnc(-n3c(N[C@H](C)c4ccccc4)nc4ccccc43)n2)cc(OC)c1OC [Compound 1034] .
Result :: > 9.04 µM

Query :: Requested read-out: IC50. Entry: CC[C@H]1CN(c2ccc(-c3ncnc(Nc4cc(OC)c(OC)c(OC)c4)n3)cn2)CCN1 [Compound 446]
Result :: > 9.97 µM

Query :: Reported IC50, compound COc1cc(Nc2ncnc(N(C/C=C/c3ccccc3)c3ccc(Cl)cc3)n2)cc(OC)c1OC [Compound 56] : ____
Result :: < 0.794 µM

Query :: Could you share which IC50 value was measured for O=c1[nH]c2ccccc2n1-c1ncnc(Nc2cccc(-c3cnco3)c2)n1 [Compound 418] ?
Result :: 1.08 to 6.46 µM

Query :: Can you look up the measured IC50 of Nc1ncnc(Nc2ccc3c(cnn3Cc3ccccc3)c2)n1 [Compound 665] for me?
Result :: 1.26 to 7.56 µM

* * *

targetOrSystem: c-Met (Homo sapiens)
Construct: Kinases are expressed as either kinase domains or full length constructs; made in house
testDescription: Kinase inhibition assay (33P transfer), c-Met
Format: biochemical
settings: Table 2, kinase inhibition class; read-out: Met-1
pIC50: −log10 of the molar value.
measuredParameter: pIC50

Query :: Param item = `COc1cc(Nc2ncnc(Nc3cccc(C(=O)O)c3)n2)cc(OC)c1OC` ; retrieve measured pIC50.
Result :: < 4.95

Query :: Recorded pIC50 of `COc1ccc(Nc2ncnc(NC[C@@H]3CCCO3)n2)cc1OC` , please.
Result :: < 4.87

Query :: Can you look up the measured pIC50 of `COc1cc(Nc2ncnc(-n3c(Nc4ccc(Cl)cc4)nc4ccccc43)n2)cc(OC)c1OC` for me?
Result :: < 5.05

Query :: Dear colleague, I am looking for the recorded pIC50 of the following compound: `CN(c1cccc(Cl)c1)c1ncnc(Nc2ccc(S(C)(=O)=O)cc2)n1`
Result :: 5.21 to 5.99

Query :: Endpoint output: pIC50 of `COc1ccc2c(ccn2-c2ncnc(Nc3cc(OC)c(OC)c(OC)c3)n2)c1` . Value?
Result :: < 4.96

Query :: # lookup: pIC50 of `Cc1ccc2c(c1)CCCN2c1ncnc(Nc2cc[nH]n2)n1`
Result :: 5.11 to 5.89

Query :: Data request, read-out pIC50, for `CC(=O)c1ccc(Nc2ncnc(Nc3ccc4c(cnn4Cc4ccccc4)c3)n2)cc1`
Result :: 5.26 to 6.04

Query :: # query: pIC50 of entry `COc1ccc(Nc2ncnc(-n3c(N)nc4ccccc43)n2)cc1OC`
Result :: < 4.91

Query :: Record request: pIC50 value, item `COc1cc(Nc2ncnc(-n3c(Nc4ccc(C)cc4)nc4ccccc43)n2)cc(OC)c1OC`
Result :: < 5.03

* * *

targetOrSystem: PDGFRB (Homo sapiens, UniProt P09619)
Construct: Kinases are expressed as either kinase domains or full length constructs; made in house
Sequence (P09619 33-1106, species assumed): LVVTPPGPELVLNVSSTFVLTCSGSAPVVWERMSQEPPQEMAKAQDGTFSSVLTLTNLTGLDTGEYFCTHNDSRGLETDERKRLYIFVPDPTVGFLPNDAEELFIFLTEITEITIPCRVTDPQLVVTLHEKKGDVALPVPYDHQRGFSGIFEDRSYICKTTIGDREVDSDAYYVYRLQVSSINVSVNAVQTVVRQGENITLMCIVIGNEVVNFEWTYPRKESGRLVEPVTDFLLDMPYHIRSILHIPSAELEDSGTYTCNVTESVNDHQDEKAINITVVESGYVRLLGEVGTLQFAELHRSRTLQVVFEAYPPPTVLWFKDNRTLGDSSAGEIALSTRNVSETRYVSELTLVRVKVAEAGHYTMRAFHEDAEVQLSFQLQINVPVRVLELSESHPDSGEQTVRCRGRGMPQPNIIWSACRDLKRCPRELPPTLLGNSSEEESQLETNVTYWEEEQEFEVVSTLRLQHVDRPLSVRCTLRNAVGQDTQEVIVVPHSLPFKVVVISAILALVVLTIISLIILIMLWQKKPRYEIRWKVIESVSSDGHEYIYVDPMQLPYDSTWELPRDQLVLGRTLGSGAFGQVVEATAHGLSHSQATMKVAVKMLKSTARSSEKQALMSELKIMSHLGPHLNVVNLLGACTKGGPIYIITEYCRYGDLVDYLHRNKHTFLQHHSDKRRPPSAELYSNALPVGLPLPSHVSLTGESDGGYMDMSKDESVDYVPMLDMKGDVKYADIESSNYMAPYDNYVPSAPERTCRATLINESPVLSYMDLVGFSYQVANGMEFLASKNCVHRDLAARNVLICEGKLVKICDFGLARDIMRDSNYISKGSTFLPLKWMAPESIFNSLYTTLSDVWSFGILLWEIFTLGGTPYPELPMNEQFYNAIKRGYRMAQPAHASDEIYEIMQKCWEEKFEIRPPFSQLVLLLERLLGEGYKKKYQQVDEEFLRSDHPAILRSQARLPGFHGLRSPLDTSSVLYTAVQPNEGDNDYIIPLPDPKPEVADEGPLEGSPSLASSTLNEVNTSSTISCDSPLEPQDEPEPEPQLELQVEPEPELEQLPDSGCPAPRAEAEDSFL
testDescription: Kinase inhibition assay (33P transfer), PDGFRB
Assay type: biochemical
settings: read-out: PDGFRB-1
measuredParameter: IC50

Query :: For the compound shown here, O=C1OCc2ccc(Nc3ncnc(Nc4cc(-c5ccco5)n[nH]4)n3)cc21 [Compound 364] , give the reported IC50.
Result :: 6.39 to 9.32 µM

Query :: Could you share which IC50 value was measured for COc1cc(Nc2ncnc(Nc3ccc(Br)c4ccccc34)n2)cc(OC)c1OC [Compound 613] ?
Result :: < 0.829 µM

Query :: Fill in: IC50 of NC(=O)c1ccc(Nc2ncnc(-c3cccnc3NCc3ccccc3)n2)cc1 [Compound 1082] is ___
Result :: 1.01 to 6.04 µM

Query :: Can you share its IC50? I mean this compound: COc1cc(Nc2ncnc(Nc3cc(C(C)(C)C)[nH]n3)n2)cc(OC)c1OC [Compound 313]
Result :: 1 to 6.01 µM

Query :: Entry COc1cc(Nc2ncnc(Nc3ccc(C)c(O)c3)n2)cc(OC)c1OC [Compound 83] has what IC50?
Result :: < 1.04 µM

Query :: I have this compound here, CCOc1ccc(Nc2ncnc(Nc3ccc(OCc4ccccc4)cc3)n2)cc1OCC [Compound 170] , and I need its recorded IC50.
Result :: > 9.84 µM

Query :: Recorded IC50 of COc1cc(Nc2ncnc(-n3c(Nc4cccc(C(=O)O)c4)nc4ccccc43)n2)cc(OC)c1OC [Compound 390] , please.
Result :: 0.779 to 4.67 µM

Query :: Name the recorded IC50 for COc1cc(Nc2ncnc(NC3CC3c3ccccc3)n2)cc(OC)c1OC (stereo not drawn) [Compound 428] .
Result :: 1.02 to 6.1 µM

Query :: What does the data say about its IC50? Entry: COc1cc(Nc2ncnc(Nc3ccc(C)c(N)c3)n2)cc(OC)c1OC [Compound 935]
Result :: < 1.05 µM

Query :: Which IC50 is listed for COc1cc(Nc2ncnc(Nc3ccc(C)c(F)c3)n2)cc(OC)c1OC [Compound 300] ?
Result :: < 1.04 µM

Query :: Can you look up the measured IC50 of COc1cc(Nc2ncnc(-n3c(Nc4ccc5cn[nH]c5c4)nc4ccccc43)n2)cc(OC)c1OC [Compound 406] for me?
Result :: 0.785 to 4.71 µM

Query :: Which value of IC50 has been reported for COc1cc(Nc2ncnc(Nc3cc(OC)c(OC)c(OC)c3)n2)ccc1OCCN1CCOCC1 [Compound 601] in the records?
Result :: 0.78 to 4.68 µM

Query :: May I ask what IC50 has been recorded for COc1cc(Nc2ncnc(Nc3cc(-c4cccs4)n[nH]3)n2)cc(OC)c1OC [Compound 318] ?
Result :: < 0.94 µM

Query :: // query IC50 value for entry Nc1nc2ccccc2n1-c1ncnc(Nc2cccnc2)n1 [Compound 658]
Result :: > 14.8 µM

Query :: Look at this compound and give its reported IC50. COc1cc2ccn(-c3ncnc(Nc4cc(OC)c(OC)c(OC)c4)n3)c2cc1OC [Compound 239]
Result :: > 10.3 µM

Query :: Any idea what its IC50 is? The compound is COc1cc(Nc2ncnc(Nc3nnc(-c4ccccc4)[nH]3)n2)cc(OC)c1OC [Compound 311]
Result :: > 10.7 µM

Query :: Fill blank: measured IC50 of the compound COc1cc(Nc2ncnc(Nc3cccc4ccccc34)n2)cc(OC)c1OCCN1CCOCC1 [Compound 1041] is ____.
Result :: < 0.796 µM

Query :: Please look up its IC50: COc1cc(Nc2ncnc(Nc3ccc(C(C)C)cc3)n2)cc(OC)c1OC [Compound 66]
Result :: > 11.4 µM

Query :: // query IC50 value for entry COc1cc(Nc2ncnc(Nc3ccc(N)cc3)n2)cc(OC)c1OC [Compound 92]
Result :: 1.09 to 6.51 µM

Query :: I am curious: what IC50 value has been reported for COCCOc1ccc(Nc2ncnc(Nc3ccc4[nH]ccc4c3)n2)cc1OCCOC [Compound 321] ?
Result :: 0.888 to 5.33 µM

Query :: What value of IC50 has been reported for the following compound? Cc1cccc(Nc2ncnc(Nc3ccc(O)cc3)n2)c1 [Compound 107]
Result :: 1.36 to 8.18 µM

Query :: What does the data say about its IC50? Entry: COc1cc(Nc2ncnc(-n3c(Nc4ccc(C(C)C)cc4)nc4ccccc43)n2)cc(OC)c1OC [Compound 388]
Result :: 0.782 to 4.69 µM

Query :: // returns reported IC50 for input COc1cc(Nc2ncnc(Nc3ccc(Br)cc3)n2)cc(OC)c1OC [Compound 82]
Result :: < 0.925 µM

Query :: Any idea what its IC50 is? The compound is COc1cc(Nc2ncnc(Nc3ccc(Br)cc3F)n2)cc(OC)c1OC [Compound 41]
Result :: 0.888 to 5.33 µM

Query :: Given the entry COc1cc(Nc2ncnc(-n3c(NCCc4ccccc4)nc4ccccc43)n2)cc(OC)c1OC [Compound 509] , report its measured IC50.
Result :: 0.804 to 4.82 µM

Query :: Quick check: IC50 of COc1cc(Nc2ncnc(N3CCCCC3)n2)cc(OC)c1OC [Compound 207] ?
Result :: > 13 µM

Query :: Need IC50, item COc1cc(Nc2ncnc(Nc3cc(-c4ccc(Cl)cc4)n[nH]3)n2)cc(OC)c1OC [Compound 367]
Result :: > 9.91 µM

Query :: Look at this compound and give its reported IC50. COc1cc(Nc2ncnc(-n3c(NCc4ccc(Cl)cc4)nc4ccccc43)n2)cc(OC)c1OC [Compound 944]
Result :: 0.772 to 4.63 µM

Query :: Return reported IC50; argument: CCN(CC)CCOc1ccc(Nc2ncnc(Nc3cc(OC)c(OC)c(OC)c3)n2)cc1OC [Compound 602]
Result :: 0.802 to 4.81 µM

Query :: Any idea what IC50 was measured for COc1cc(Nc2ncnc(Nc3ccc4c(cnn4Cc4ccccc4)c3)n2)cc(OC)c1OCCN1CCOCC1 [Compound 559] ?
Result :: < 0.687 µM

Query :: Given the compound COc1cc(Nc2ncnc(-n3ccc4ccc(Cl)cc43)n2)cc(OC)c1OC [Compound 237] , what is its reported IC50?
Result :: > 10.9 µM

Query :: Look at this compound and give its reported IC50. COc1cc(Nc2ncnc(Nc3ccc(Cl)cc3F)n2)cc(OC)c1OC [Compound 306]
Result :: < 0.986 µM

Query :: Request the reported IC50 associated with NC(=O)c1ccc(Nc2ncnc(-c3cccnc3NCc3cccs3)n2)cc1 [Compound 1083]
Result :: 0.991 to 5.95 µM

Query :: Please give the measured IC50 for this compound: c1coc(-c2cc(Nc3ncnc(Nc4ccc(N5CCOCC5)cc4)n3)[nH]n2)c1 [Compound 340]
Result :: 8.65 to 11.1 µM

Query :: I would be grateful if you could share the reported IC50 for COc1cc(Nc2ncnc(Nc3ccc(Cl)c4ccccc34)n2)cc(OC)c1OC [Compound 1031] .
Result :: < 0.913 µM

Query :: Could you tell me which IC50 is on file for CCN(CC)C(=O)C1CCCN(c2ncnc(Nc3cc(OC)c(OC)c(OC)c3)n2)C1 (stereo not drawn) [Compound 615] ?
Result :: > 10.1 µM

All values here come from patent US7074789B2.
